- tgt: glucokinase (residues 12-465 of the human enzyme) (Homo sapiens)
- Construct: FLAG (vector pFLAG-CTC) (C)
- Sequence (P35557 12-465): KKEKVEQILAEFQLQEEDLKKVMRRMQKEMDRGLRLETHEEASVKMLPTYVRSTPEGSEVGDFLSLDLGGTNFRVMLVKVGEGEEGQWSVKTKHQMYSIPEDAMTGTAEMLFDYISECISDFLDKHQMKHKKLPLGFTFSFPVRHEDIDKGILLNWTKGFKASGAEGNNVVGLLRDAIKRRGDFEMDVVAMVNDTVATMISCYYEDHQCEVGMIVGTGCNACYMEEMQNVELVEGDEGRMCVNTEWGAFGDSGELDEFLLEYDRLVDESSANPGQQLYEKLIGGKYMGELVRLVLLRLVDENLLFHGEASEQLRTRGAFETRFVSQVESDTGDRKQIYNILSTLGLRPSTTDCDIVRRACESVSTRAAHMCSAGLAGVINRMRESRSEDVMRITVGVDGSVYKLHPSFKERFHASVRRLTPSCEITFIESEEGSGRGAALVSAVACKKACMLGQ
- assay-remarks: Measurement of GK activation value (ATP/glucose, luciferase luminescence)
- test-settings: Kact = concentration that displays 50% of the maximal increase in GK activity; room temperature, 60 min; values given as ranges; read-out: pKact
pEC50: −log10 of the molar value.
experimental-readout: pEC50

[
  {
    "chemical-structure": "Cn1ccnc1CNc1cc(NS(=O)(=O)c2ccccc2)cc(-c2nc3cc(Br)cnc3[nH]2)c1",
    "observed-value": "6.50 to 6.90"
  },
  {
    "chemical-structure": "Cn1ccnc1COc1cc(OCc2ccccc2F)cc(-c2nc3cc(Cl)cnc3[nH]2)c1",
    "observed-value": "> 7.00"
  },
  {
    "chemical-structure": "Fc1ccccc1COc1cc(Oc2ncccn2)cc(-c2nc3cc(Br)cnc3[nH]2)c1",
    "observed-value": "6.00 to 6.40"
  },
  {
    "chemical-structure": "Brc1cnc2[nH]c(-c3ccccc3Oc3ccccc3)nc2c1",
    "observed-value": "6.00 to 6.40"
  },
  {
    "chemical-structure": "CC(C)Oc1ccc(/C=C/c2ccccc2)cc1-c1nc2cccnc2[nH]1",
    "observed-value": "6.00 to 6.40"
  },
  {
    "chemical-structure": "COC[C@H](C)Oc1cc(Oc2ccc(S(C)(=O)=O)cc2)cc(-c2nc3cccnc3[nH]2)c1",
    "observed-value": "6.00 to 6.40"
  },
  {
    "chemical-structure": "Brc1cnc2[nH]c(-c3ccccc3Oc3cccnc3)nc2c1",
    "observed-value": "6.00 to 6.40"
  },
  {
    "chemical-structure": "Cn1ccnc1COc1cc(OCc2ccccc2)cc(-c2nc3cc(Br)cnc3[nH]2)c1",
    "observed-value": "> 7.00"
  },
  {
    "chemical-structure": "CC(C)Oc1cc(OCCc2ccccc2)cc(-c2nc3cccnc3[nH]2)c1",
    "observed-value": "> 7.00"
  },
  {
    "chemical-structure": "Cn1ccnc1CNc1cc(NS(C)(=O)=O)cc(-c2nc3cc(Br)cnc3[nH]2)c1",
    "observed-value": "6.00 to 6.40"
  },
  {
    "chemical-structure": "Cn1ccnc1COc1cc(OCc2ccccc2F)cc(-c2nc3cc(CCCO)cnc3[nH]2)c1",
    "observed-value": "6.50 to 6.90"
  },
  {
    "chemical-structure": "Cn1ccnc1COc1cc(OCc2ccccc2F)cc(-c2nc3cccnc3[nH]2)c1",
    "observed-value": "> 7.00"
  },
  {
    "chemical-structure": "CC(C)Oc1ccc(OCc2ccccc2)cc1-c1nc2cc(-c3cccc(F)c3)cnc2[nH]1",
    "observed-value": "6.00 to 6.40"
  }
]

Sourced from patent US8124617B2
